Attribute: folding stability dG unfold
assay: folding stability dG unfold (combined trypsin and chymotrypsin); higher = more stable

INSERT INTO results (sequence, parameter_measured, measurement) VALUES
  ('SAGGSAGGSAGGSPKRVTMYFIIPFYILIPKEDADGNNEWVIIPITIIIKIEIELPPGDSAGGSAGGSAGGS [r4_326_TrROS]', 'folding stability dG unfold', '5.48 kcal/mol'),
  ('SAGGSAGGSAGGGMARAEKLPSSWTLVSVTPRDGSTVVTYKLPDGSTLTLDLRPDSYDGASAGGSAGGSAGG [r7_775_JUSTAS]', 'folding stability dG unfold', '1.1 kcal/mol'),
  ('SAGGSITLEIELPNGAKITVTIEYDEETGTVTIEAEITLPNGTVIRIKATINKDGTITIEKIEVFKPSAGGS [r16_213_TrROS_Hall]', 'folding stability dG unfold', '> 6 kcal/mol');

Requested field: folding stability dG unfold. Item: SAGMEVEWEIGDADEDGYVRLTVKAVLLIPETGKPVVVEAEIKMPIEELENEEVLKELARKVVEEAEAESAG [r5_964_TrMRF]
1.85 kcal/mol

Continue with SAGPKELAKQIKEIARELARAFHPNGQPMKMEVEIEPVSIDDENGWVRLKVKIRMPNRPVKFNITIPLKSAG [r5_53_TrROS]
2.72 kcal/mol

Continue with SAGGSAGGANDPEMPKPKRVEITIPPDEEIRNPNGKEMPVEQAREYAEYLADRYGIDVEITISPSAGGSAGG [r6_162_TrROS]
-0.202 kcal/mol

Continue with SAGGSAGGSMFEEEEIEIERPDGTTIKVKVEILPDGTRVLTITDPKEGKTTTVTLSPNEEILLSAGGSAGGS [r20_45_JUSTAS]
1.6 kcal/mol

----------
assay: folding stability dG unfold from trypsin proteolysis; higher = more stable
PARAMETER MEASURED: folding stability dG unfold

Worked cases, answers included:
INSERT INTO results (sequence, measurement) VALUES
  ('SAGGSAGGSASMKVLEFPPDASIEEILEKIEKELGLSKEEIKNIKIEKIDDEEGSYKVIIESAGGSAGGSAG [r3_26_JUSTAS]', '2.42 kcal/mol'),
  ('SMKLKPGQTAKIVEIKENYIYIEVNGKKYKISLEELKEKGYEIKIVNGKIVEIRPKPKKKLSEEELKKLKSA [r9_842_TrROS_Hall]', '1.13 kcal/mol'),
  ('SAGEATVEKLEDGYVVVFKDGSVAFLPAVPPAVPVVEIPFKDPEEGRRAVEELGADVLDIGDDSIVVAGSAG [r5_328_TrMRF]', '-1.19 kcal/mol'),
  ('SAGGFRITPEFLEELLKNMPPGDPNKTITVKVEMPMRYEPRKGGNGQPQYRHEYPMTHEFPITIPPKSAGGS [r16_708_TrROS]', '0.32 kcal/mol'),
  ('SAMLKLEITLPDGTVVEVEIPLERPVPPAGEEEALAAAEAVREAVAAALGLEDAEVTMEVEEVSPEELLSAG [r14_378_JUSTAS]', '1.65 kcal/mol'),
  ('SANPIPLEKANITVSYTSPDGLVVTANITSVTYDPSTGKYTFTFTGTLTDPSTGTTTPVSFTVSTVTLSSAG [r14_825_JUSTAS]', '2.68 kcal/mol'),
  ('SAGGSAGMVVEVREFEIEPDEDKKIKATLERYETPEGPRYVLTIEDPSKNEKKSYPLEPGVDFKKLSAGGSA [r15_75_JUSTAS]', '-0.0245 kcal/mol'),
  ('SAGGSAGGSMLTVKITLPNGEKIEIEIEAESEEEAKAAAEKLLEALREAGVSLEDVKVEVVEPSAGGSAGGS [r12_295_TrROS_Hall]', '4.46 kcal/mol'),
  ('MEEIKNLPGVKYEPIIEDGEIRLVRFEIPKEVFEKFGKPPVILLVEFSKDGKYRILPESIPKLLELGIIPGS [r1_256_TrMRF]', '1.85 kcal/mol'),
  ('SAGMIKPEEIVEKVKAIFEEEGLENVTVKVYYDEETDEIFVEVEVELEPEEEEKAQAILDKIKKELGLESAG [r5_9_TrMRF]', '3.02 kcal/mol');

Requested field: folding stability dG unfold. Item: SMIVRVEGDKTTITLTLTTTTTLTDPTNPSLTTTVSKTVPRTLTLDPNDPAALAALIAALPPGAVPTIVGSA [r9_476_JUSTAS]
0.728 kcal/mol

Continue with SAGGMPIKPKVELEPLEDAYLVRVRFEAPDRPIEIRRAFASFPDAVREAEEIARFLEEAEIPSPEGGSAGGS [r16_24_TrMRF]
-0.682 kcal/mol

Continue with SVPYGVTDVTFEPEKNTATVTAPRPDPSAPVAVGDKKGESVSVTSEVDTAAGTLTVTVPTTAPGNVTVDVPS [r1_138_JUSTAS]
0.57 kcal/mol

Continue with SAGGSAGGSAGMTITVPITDLEKLKTMPELPVEVIEEGEGPPTATLDASNPELAKQAYSSSAGGSAGGSAGG [r11_65_JUSTAS]
-0.0977 kcal/mol

Data provenance is the supplement of paper PMC12764529.
